System: Nicotinate-nucleotide adenylyltransferase NadD (Staphylococcus aureus N315)
Experiment: inhibitors of S. aureus NadD, primary screen, biochemical, colorimetric, uHTS (AID 602399)
Conditions: purified NadD enzyme, colorimetric absorbance read-out; at 20 µM
Among all 360,000 compounds or so, about 2,800 (0.78%) were called active. Cut-off read from the data, not from the text of the source: active = inhibition above about 26%; inactive = the rest. This is one part of a sample in which actives are shown more often than they occur.
Labels: t for active, f for inactive

> print(dat)
                                    compound                                    target  label.class
 1  CN(CC(=O)NCc1ccc2c(c1)OCO2)CC(=O)Nc1ccc(F)c(F)c1F  Nicotinate-nucleotide adenylyltransferase NadD (Staphylococcus aureus N315)            f
 2   Cc1ccc(NC(=O)COc2ccc(-n3ccnc3)cc2)cc1Cl  Nicotinate-nucleotide adenylyltransferase NadD (Staphylococcus aureus N315)            f
 3  Cc1cc(C(=O)OC(C)C(=O)NC2CCCCC2C)c(C)o1 (stereo not given)  Nicotinate-nucleotide adenylyltransferase NadD (Staphylococcus aureus N315)            f
 4  CCOc1cc(/C=C2/N=C(c3ccc(C(C)(C)C)cc3)OC2=O)cc(Cl)c1OS(C)(=O)=O  Nicotinate-nucleotide adenylyltransferase NadD (Staphylococcus aureus N315)            t
 5  Cc1ccccc1OCC(=O)N(Cc1cccc(F)c1)C1CCS(=O)(=O)C1 (stereo not given)  Nicotinate-nucleotide adenylyltransferase NadD (Staphylococcus aureus N315)            f
 6  CC(C)Oc1ccc(CCc2nnc(SCC(=O)O)n2-c2ccccc2)cc1  Nicotinate-nucleotide adenylyltransferase NadD (Staphylococcus aureus N315)            f
 7  O=C(Cc1csc(Nc2nc(=S)[nH]c3ccccc23)n1)NCCCN1CCN(c2cccc(Cl)c2)CC1  Nicotinate-nucleotide adenylyltransferase NadD (Staphylococcus aureus N315)            t
 8  COc1ccc(CCNC(=O)/C(C#N)=C2\N=C(NC(=O)c3cccs3)c3ccccc32)cc1  Nicotinate-nucleotide adenylyltransferase NadD (Staphylococcus aureus N315)            f
 9  Cn1c2c(c(=O)n(C)c1=O)[C@@H]1c3c(ccc4ccccc34)OC[C@@H]1CO2  Nicotinate-nucleotide adenylyltransferase NadD (Staphylococcus aureus N315)            f
10  Cc1nc(-c2ccc(F)cc2)c(CC(=O)Nc2cc(S(=O)(=O)N3CCCCC3)ccc2C)s1  Nicotinate-nucleotide adenylyltransferase NadD (Staphylococcus aureus N315)            f
11  Cc1ccc(NC(=O)CN(C)S(=O)(=O)c2cnc[nH]2)cc1C  Nicotinate-nucleotide adenylyltransferase NadD (Staphylococcus aureus N315)            f
12  O=C(Cc1ccc(-n2c(=O)[nH]c3ccccc3c2=O)cc1)N1CCN(c2cccc(Cl)c2)CC1  Nicotinate-nucleotide adenylyltransferase NadD (Staphylococcus aureus N315)            f
13  CC(C#N)(NC(=O)CN1CCN(S(=O)(=O)c2cc(C(F)(F)F)ccc2Cl)CC1)C1CC1 (stereo not given)  Nicotinate-nucleotide adenylyltransferase NadD (Staphylococcus aureus N315)            f
14  COc1ccc(S(=O)(=O)N2CCOC2CNC(=O)C(=O)NCc2ccncc2)cc1OC (stereo not given)  Nicotinate-nucleotide adenylyltransferase NadD (Staphylococcus aureus N315)            f
15    CCCc1c(C(=O)Nc2ccc(F)cc2)cnn1-c1ccccc1  Nicotinate-nucleotide adenylyltransferase NadD (Staphylococcus aureus N315)            f
16  Cc1ccc(NC2CCCN(C(=O)CCC3(C)CC3)C2)cc1C (stereo not given)  Nicotinate-nucleotide adenylyltransferase NadD (Staphylococcus aureus N315)            f
17  CC1CCN(C(=O)Cn2cc(C(=O)c3ccco3)c3ccccc32)CC1  Nicotinate-nucleotide adenylyltransferase NadD (Staphylococcus aureus N315)            f
18  CC1CCN(C(=S)NC2CC3CCC2C3)CC1 (stereo not given)  Nicotinate-nucleotide adenylyltransferase NadD (Staphylococcus aureus N315)            f
19  O=[N+]([O-])c1cc(Cl)cc(/C=N/NC(=S)Nc2cc(S(=O)(=O)N3CCOCC3)ccc2Cl)c1O  Nicotinate-nucleotide adenylyltransferase NadD (Staphylococcus aureus N315)            t
20  COC(=O)c1cc(Oc2ccc(S(=O)(=O)N3CCOCC3)cc2[N+](=O)[O-])cc(C(=O)OC)c1  Nicotinate-nucleotide adenylyltransferase NadD (Staphylococcus aureus N315)            f

###

Tested on: Nicotinate-nucleotide adenylyltransferase NadD (Staphylococcus aureus N315)
Assay: inhibitors of S. aureus NadD, primary screen, biochemical, colorimetric, uHTS (AID 602399)
Details: purified NadD enzyme, colorimetric absorbance read-out; at 20 µM
The campaign covered roughly 360,000 compounds. About 2,800 (0.78%) were called active. Rule as the data show it: active = inhibition above about 26%; inactive = the rest. The full list was thinned out, with actives kept by preference.
Labels: yes (1) for active, no (0) for inactive

> print(dat)
                                    compound  label.class
 1  CCCN(c1ccc(C(C)C)cc1)S(=O)(=O)c1c(C)[nH]c(=O)[nH]c1=O       no (0)
 2  COc1cc(/C=C2\SC(=S)N(Nc3ncc(C(F)(F)F)cc3Cl)C2=O)cc(OC)c1OC      yes (1)
 3  CCOc1ccc(-c2cn(S(=O)(=O)c3cccc4nsnc34)nc2N)cc1       no (0)
 4  O=C1/C(=C/c2ccc(F)cc2)SC(=S)N1NS(=O)(=O)c1ccccc1       no (0)
 5   O=C(COc1nc2ccccc2nc1N1CCOCC1)NCC(F)(F)F       no (0)
 6  COCCCn1c(C(=O)NC2CCCCC2)cc2c(=O)n3cccc(C)c3nc21       no (0)
 7         COc1c(F)c(F)c(-c2csc(N)n2)c(F)c1F       no (0)
 8     CCN(CC)C(=O)c1sc2nc(-c3ccccc3)ccc2c1N      yes (1)
 9  CC(C)(C)C1C/C(=C/c2ccco2)C(=O)/C(=C/c2ccco2)C1 (stereo unspecified)      yes (1)
10  CCOC(=O)C(C)n1nc(-c2ccccc2)c2ccccc2c1=O (stereo unspecified)       no (0)
11            CN(C)c1ccnc(Oc2ccc(F)cc2)c1C#N       no (0)
12  O=C(c1ccc(C(F)(F)F)cc1)N1CCC(=O)N([C@H](COCc2ccccc2)Cc2ccccc2)CC1       no (0)
13  CCN(CC)C(=O)c1nc[nH]c1C(=O)N(C)Cc1ccccc1       no (0)
14  Cc1ccc(-c2nn(-c3ccccc3)cc2/C=C2\SC(=S)N(CCCCCC(=O)O)C2=O)o1      yes (1)
15  Cc1cc(C)c2c(c1)cc(C)c1nnc(SCC(=O)Nc3cc(C)on3)n12       no (0)
16  COC(=O)COc1ccc2c(c1C)O/C(=C\c1ccco1)C2=O       no (0)
17  COc1cc(-c2nnc(Cn3cc(C(F)(F)F)ccc3=O)o2)cc(OC)c1OC       no (0)
18  Cc1ccc(Cn2nnc3c(=O)[nH]c(C4CCN(S(=O)(=O)/C=C/c5ccccc5)CC4)nc32)cc1      yes (1)
19  CC(C)(C)c1ccc(Cn2nnc3c(=O)[nH]c(C4CCCN(C(=O)c5ccco5)C4)nc32)cc1 (stereo unspecified)       no (0)
20  CCc1ccc(OCC(=O)NCC(c2ccc(Cl)cc2)N2CCCCC2)cc1 (stereo unspecified)       no (0)
21  CC(=O)c1ccc(N2C(=NC(=O)C(C)C)SC3CS(=O)(=O)CC32)cc1 (stereo unspecified)       no (0)

###

Tested on: Nicotinate-nucleotide adenylyltransferase NadD (Staphylococcus aureus N315)
Test: inhibitors of S. aureus NadD, primary screen, biochemical, colorimetric, uHTS (AID 602399)
Conditions: purified NadD enzyme, colorimetric absorbance read-out; at 20 µM; active compounds read high
Screen size: about 360,000 compounds; about 2,800 (0.78%) were called active. Shown is part of a subset that was picked to be rich in actives.
Readout label: inhibition (%)

> print(dat)
                                    compound  reported.result
 1  CCNC(=O)Nc1ccc(S(=O)(=O)Nc2cnc(C)nc2C)cc1             4.03
 2        Cc1nccc(-c2ccc(-n3c(C)ccc3C)cc2)n1             3.88
 3  CCOc1ccc(S(=O)(=O)N(CC(=O)NCC(F)(F)F)Cc2ccco2)cc1            -2.92
 4  CCC(C)OC(=O)C(C)Oc1ccc(-c2ccccc2)cc1 (stereo not given)             2.06
 5  NC(CSC(c1ccccc1)(c1ccccc1)c1ccc(-c2ccccc2)cc1)C(=O)O (stereo not given)             43.5
 6  C[C@@H]1CN([C@@H](C)CO)C(=O)c2cccc(NS(=O)(=O)c3ccc(F)cc3)c2O[C@H]1CN(C)C(=O)NC1CCCCC1             4.79
 7  CC1(OC(=O)C2CCCC2)C(=O)C=C2C=C(c3ccc(C#N)cc3)OC=C2C1=O (stereo not given)             51.9
 8    COc1ccc(/C=C(\C#N)C(=O)NCCCn2ccnc2)cc1           -0.938
 9           COC(=O)c1ccc(-n2cnc3ccccc32)nc1            -5.95
10  O=C(NCCCn1ccnc1)/C(=C\c1ccccc1F)NC(=O)c1ccccc1           -0.605

Ref: PubChem BioAssay AID602399
